src = PubChem BioAssay (NCI)

# System: MCF7 breast
# protocol details: NCI tumour cell line growth inhibition, 48 h
Collected TGI values appear next to each entry.

CCSC1=CC(=O)c2nc3ccccc3c3ccnc1c23 :: 4.79 µM
CC(C)(C)N=c1n(C(C)(C)C)oc(=O)n1C(C)(C)C :: > 100 µM
CCCC[C@H](NC(=O)[C@H]1CCCN1C)C(=O)N(C)[C@H](C[C@@H](OC(C)=O)c1nc(C(=O)N[C@@H](Cc2ccccc2)C[C@H](C)C(=O)OCC)cs1)C(C)C :: > 33.3 µM
C=CCc1c2c(c(OC)c3ccoc13)C(=O)/C(=C/c1ccccc1OC)O2 :: > 100 µM
CC(=O)N/N=C1/NN(C(C)=O)C2(S1)C(=O)Nc1ccc(Br)cc12 (configuration not stated) :: > 100 µM

Data request: Consider the compound shown here: `CC1(C)O[C@@H]2COC(=O)[C@@H]2O1` What is its recorded TGI?
Data returned: > 100 µM

Data request: Item under review: `COc1cc(OCc2ccc3oc(=O)c(-c4ccccc4)nc3c2)cc(OC)c1OC` . Reported TGI?
Data returned: > 100 µM

Data request: Item `COc1cc(Cl)cc(-c2nn(C(=O)NCCN3CCOCC3)cc2-c2ccncc2)c1` has what recorded TGI?
Data returned: > 100 µM

Data request: What TGI value was documented for this compound, O=C(O)C1CC(c2ccc(F)cc2)=Nc2ccc(F)cc2S1 (configuration not stated) ?
Data returned: > 100 µM

Data request: Dear colleague, I am looking for the recorded TGI of the following compound: `CCC[C@H]1C(=O)N=C(N)N1C(=O)OCc1ccccc1`
Data returned: > 100 µM

Data request: Can you share its TGI? I mean this compound: `COC(=O)[C@]12CC[C@@H](C)[C@H](C)[C@@H]1C1=CC[C@@H]3[C@@]4(C)C[C@@H](OC(C)=O)[C@H](O)[C@@](C)(COC(C)=O)[C@@H]4[C@H](O)C[C@@]3(C)[C@]1(C)CC2`
Data returned: 5.71 µM

Data request: Give its TGI value. Item: `O=C(CN1CCCCC1)CC(O)(C(F)(F)F)C(F)(F)F`
Data returned: > 100 µM

Data request: Requested read-out: TGI. Entry: `CNC(=O)n1ccc2cc(Oc3ccnc(NC(=O)c4ccc(C5CCN(CCO)CC5)cc4)c3)c(OCCOC)cc21`
Data returned: 19.5 µM

Data request: For `O=C(Nc1cccc2cnccc12)c1cc2c(cc1Cl)Sc1nccn1S2(=O)=O` , what is its reported TGI?
Data returned: 37.1 µM

Data request: What value of TGI has been reported for the following compound? COP(=O)(O)/C=C/C(NC(=O)C(Cl)(Cl)Cl)c1ccccc1 (configuration not stated)
Data returned: > 100 µM

Data request: Record request: TGI value, item `CC(C)(C)NC(=O)[C@H]1CC[C@H]2[C@@H]3CC=C4NC(=O)CC[C@]4(C)[C@H]3CC[C@]12C`
Data returned: > 100 µM

Data request: Entry `COC(=O)NN(C(=O)OC)c1c(-c2ccccc2)nc(SC)n1N` has what TGI?
Data returned: > 100 µM

====

Documented TGI across a set of compounds
# Tested on: UO-31 renal
# protocol details: NCI tumour cell line growth inhibition, 48 h

Data request: Write down the reported TGI of CC(=O)OC(C)c1cc2c(s1)C(=O)c1sccc1C2=O (configuration not stated) , test system: UO-31 renal.
Data returned: 3.28 µM

Data request: Provide value of TGI for this record tested with UO-31 renal: `CN(C)/C=C/c1nnc([N+](=O)[O-])s1`
Data returned: 29.7 µM

Data request: Missing value: TGI, UO-31 renal, entry `COc1cc(/C=C/C(=O)O)ccc1C(=O)O/C=C/c1ccccc1` . Fill in?
Data returned: > 100 µM

Data request: Give recorded TGI with UO-31 renal for the following compound: `OC[C@@H](O)[C@H]1NC[C@@H](O)[C@H]1O`
Data returned: > 100 µM

Data request: // fetch UO-31 renal TGI for NC(CSCc1ccccc1)C(=O)O (configuration not stated)
Data returned: > 100 µM

Data request: Any idea what TGI came out for `CCCCCCCCCC[C@H](O)[C@H]1CC[C@H]([C@H]2CC[C@H]([C@H](O)CC[C@H](O)CCCCCCC[C@@H](O)CC3=C[C@H](C)OC3=O)O2)O1` on UO-31 renal?
Data returned: > 100 µM

Data request: Given the entry `C=CCc1c2c(c(OC)c3ccoc13)C(=O)/C(=C/c1ccccc1OC)O2` , what TGI was observed with UO-31 renal?
Data returned: > 100 µM

Data request: Param readout= TGI; system= UO-31 renal; entry= `Cc1c(C(=O)/C=C/c2csc3ccccc23)[n+](=O)c2ccccc2n1[O-]` ; returns value.
Data returned: 2.56 µM

Data request: Any idea what TGI came out for `CCOC(=O)C1=C(C)N(Cc2ccccc2)C(C)=C(C(=O)OCC)C1c1ccccc1O` on UO-31 renal?
Data returned: > 100 µM

Data request: Give UO-31 renal TGI for `CCCc1[nH]nc(CCC(=O)N(Cc2ccccc2)Cc2ccccc2)c1CC`
Data returned: > 100 µM

Data request: Write down the reported TGI of `CC(C)(C)C1=Cc2cc3cc(C(C)(C)C)[nH]c(=O)c3cc2S(=O)(=O)N1` , test system: UO-31 renal.
Data returned: 35.8 µM

====

# Tested on: OVCAR-5 ovarian
# protocol details: NCI tumour cell line growth inhibition, 48 h
Measured TGI by item

As a guide, the following entries are already answered.
Cc1ccc(/C=C2\CN(C(=O)OC(C)(C)C)C/C(=C\c3ccc(C)cc3)C2=O)cc1 :: > 100 µM
CCN(CC)CCNc1ccc2nnn3c4ccc(OC)cc4c(=O)c1c23 :: 23.7 µM
COc1ccc(Nc2nc3ccc(C(F)(F)F)cc3nc2C(=O)O)cc1OC :: > 100 µM
COc1cc2c(cc1OC)C1c3ccccc3CCN1CC2 (stereo unspecified) :: > 100 µM
C=C1[C@@H](O)C[C@@]23CC[C@@H]4[C@@]5(C)CC[C@@H](OC(C)=O)C(C)(C)[C@@H]5C[C@@H](OC5OC(COC(C)=O)C(O)C(O)C5O)[C@@]4(C)C2=CC[C@H]3[C@H]1C (stereo partly specified) :: 7.08 µM

Data request: Would you kindly share the measured TGI for Cc1ccccc1OC(C)C(=O)NN1C(=O)CC(=O)N(c2ccc(Cl)cc2)C1=S (stereo unspecified) ?
Data returned: > 100 µM

Data request: Query: TGI; subject: `O=C([O-])c1ccccc1Nc1ccccn1.O=C([O-])c1ccccc1Nc1ccccn1.[Ni+2]`
Data returned: > 100 µM

Data request: What TGI value was documented for this molecule, `COC(=O)c1ccccc1/C=C1/Cc2ccccc2C1=O` ?
Data returned: > 100 µM

Data request: Can you look up the measured TGI of `CCCCCCCCCC[C@H](O)[C@H]1CC[C@H]([C@H]2CC[C@H]([C@H](O)CC[C@H](O)CCCCCCC[C@@H](O)CC3=C[C@H](C)OC3=O)O2)O1` for me?
Data returned: > 100 µM

Data request: Need TGI of COc1ccc2c(c1)C(O)(C(F)(F)F)c1cc(C(=O)C(F)(F)F)c3ccccc3c1N2 (stereo unspecified) , thanks.
Data returned: 27.5 µM

Data request: Which value of TGI has been reported for `O=C(CN1CCCCC1)CC(O)(C(F)(F)F)C(F)(F)F` in the records?
Data returned: > 100 µM

====

# Tested on: LXFL 529 NSCLC
# protocol details: NCI tumour cell line growth inhibition, 48 h
Here, each record is paired with measured TGI data.

Answered examples (2):
COc1ccccc1NC(=O)C1=C(C)NC(C)=C(C(=O)Nc2ccccc2OC)C1c1ccccc1F :: > 100 µM
CCCCCCCCCc1cc(=O)c2ccc(OCc3ccccc3)cc2o1 :: > 100 µM

Proceed to the following item.
Data request: Which TGI value is on record for `Cc1ccncc1.[O]=[Ge].[O]=[Ge].[O]=[Ge].[O]=[Ge].[O]=[Ge].[O]=[Ge][OH].[O]=[Ge][OH]` ?
Data returned: > 100 µM

====

Each record here notes measured TGI.
# Test system: OVCAR-5 ovarian
# protocol details: NCI tumour cell line growth inhibition, 48 h

Use these answered entries as a reference point.
C[N+](C)(C)CC(=O)N/N=C(/Cc1nc2c3c(ccc2[nH]c1=O)C(=O)c1ccccc1C3=O)C(=O)Nc1ccc(Cl)c(Cl)c1 :: > 100 µM
O=C(O)C1CC(c2ccc(F)cc2)=Nc2ccc(F)cc2S1 (stereo not drawn) :: > 100 µM
CC1SC(c2c(Cl)cccc2Cl)N(NC(=O)c2[nH]c3ccc(F)cc3c2-c2ccccc2)C1=O (stereo not drawn) :: 21.3 µM
CC(C)(C)NC(=O)[C@H]1CC[C@H]2[C@@H]3CC=C4NC(=O)CC[C@]4(C)[C@H]3CC[C@]12C :: > 100 µM
CCC12C[N+]3([O-])CCc4c([nH]c5ccccc45)C(C(=O)OC)(c4cc5c(cc4OC)N(C)C4C(O)(C(=O)OC)C(OC(C)=O)C6(CC)C=CCN7CCC54C76)CC(C3)C1O2 (stereo not drawn) :: 33.3 µM
Cc1ccc(S(=O)(=O)N2CCSCCSCCSCCSCC2)cc1 :: > 100 µM

Data request: TGI lookup needed for `O=C1CCC(=Nc2ccc(Cl)cc2)N1C(=O)COc1ccc(OCC(=O)N2C(=O)CSC2=Nc2ccc(Cl)cc2)cc1` , thanks.
Data returned: > 100 µM

Data request: Could you share which TGI value was measured for `COC(=O)[C@]12CC[C@@H](C)[C@H](C)[C@@H]1C1=CC[C@@H]3[C@@]4(C)C[C@@H](OC(C)=O)[C@H](O)[C@@](C)(COC(C)=O)[C@@H]4[C@H](O)C[C@@]3(C)[C@]1(C)CC2` ?
Data returned: 7.61 µM
